I'd appreciate it if you could supply GI50 values for the items below.
tested on: RXF 393; assay: NCI tumour cell line growth inhibition, 48 h
Calls of active or inactive are those of the source. No stated cut-off is given here; in the data, active = GI50 up to about 1.1 µM and inactive = higher.

Cc1ccc(C[N+](C)(C)N)cc1C : > 10 µM (inactive)
CC(=O)OCCOCNC(=S)N/N=C/c1cc([N+](=O)[O-])ccc1O : > 100 µM (inactive)

Record GI50 per entry; entries follow.
1. Cc1ccc(Oc2ccccc2N)cc1
2. O=C(O)C1NCCc2c1[nH]c1ccccc21 (stereo unspecified)
3. Cc1cc(OCc2nn(CN3CCN(C)CC3)c(=S)n2/N=C/c2ccc(-c3ccc(Cl)cc3Cl)o2)ccc1Cl
4. Cc1c(Cl)cccc1NC(=O)CC1C(=O)Nc2ccccc2S1(=O)=O (stereo unspecified)
5. COC(=O)C12CC(c3ccccc31)C1C(=O)OC(=O)C12 (stereo unspecified)
6. O=c1[nH]cc(COCC(F)(F)C(F)(F)C(F)(F)C(F)F)c(=O)[nH]1
7. Cc1c(C)c2c(c(N)c1C#N)C(=O)N(NC(=S)Nc1ccccc1)C2=O
8. O=P1(Cc2ccccc2)N(Cc2ccccc2)[C@@H]2CCCC[C@H]2N1Cc1ccccc1

1: 25.9 µM (inactive); 2: > 10 µM (inactive); 3: 17.2 µM (inactive); 4: 14.7 µM (inactive); 5: > 100 µM (inactive); 6: > 100 µM (inactive); 7: 46 µM (inactive); 8: 9.51 µM (inactive)

Return GI50 (reported value) for this molecule: CCOC(=O)c1nc2cc(N3CCOCC3)c(F)cc2[nH]c1=O > 100 µM (inactive)
